- ASSAYED SYSTEM: full-length SHP2^T42A (Homo sapiens, UniProt Q06124, T42A)
- Construct: Full-length SHP2 constructs were diluted in assay buffer; His6-TEV (N, cleaved yes)
- Sequence (Q06124 1-593 T42A): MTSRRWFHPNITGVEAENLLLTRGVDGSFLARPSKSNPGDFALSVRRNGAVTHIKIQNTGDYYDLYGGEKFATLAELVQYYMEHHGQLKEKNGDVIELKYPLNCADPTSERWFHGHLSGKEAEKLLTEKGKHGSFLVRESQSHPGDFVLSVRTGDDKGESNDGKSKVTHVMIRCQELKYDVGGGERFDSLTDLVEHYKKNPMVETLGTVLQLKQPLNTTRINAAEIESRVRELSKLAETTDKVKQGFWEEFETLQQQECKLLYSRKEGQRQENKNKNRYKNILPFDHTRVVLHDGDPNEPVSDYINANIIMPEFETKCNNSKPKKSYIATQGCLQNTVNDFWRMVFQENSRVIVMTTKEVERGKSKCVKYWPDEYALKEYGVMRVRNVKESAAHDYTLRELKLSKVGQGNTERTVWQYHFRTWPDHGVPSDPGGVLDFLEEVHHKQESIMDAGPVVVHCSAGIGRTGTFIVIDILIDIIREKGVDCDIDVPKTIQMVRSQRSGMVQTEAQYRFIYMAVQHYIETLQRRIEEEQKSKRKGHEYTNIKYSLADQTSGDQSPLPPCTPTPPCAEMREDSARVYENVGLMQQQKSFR
- TEST DESCRIPTION: SHP2 activation assay using phosphopeptides (DiFMUP), SHP2 T42A
- ASSAY CONDITIONS: activation of full-length SHP2 T42A (0.05 nM) by phosphopeptide; DiFMUP substrate; HEPES pH 7.2 assay buffer; mean of N (column N)
pEC50: −log10 of the molar value.
VALUE TYPE: pEC50

CC[C@H](C)[C@H](NC(=O)[C@@H](NC(=O)[C@H](C)NC(=O)[C@H](Cc1ccc(OP(=O)(O)O)cc1)NC(=O)[C@@H](NC(=O)[C@@H]1CCCN1C(=O)[C@H](CCC(=O)O)NC(=O)[C@@H]1CCCN1C(=O)[C@H](CO)NC(=O)[C@@H](NC(C)=O)C(C)C)[C@@H](C)CC)[C@@H](C)O)C(=O)N[C@@H](CC(=O)O)C(=O)N[C@@H](CC(=O)O)C(=O)N[C@@H](CC(C)C)C(N)=O = 5.16
CC(=O)N[C@@H](C)C(=O)N[C@@H](CCCCN)C(=O)N[C@@H](CO)C(=O)NCC(=O)N[C@@H](C)C(=O)N[C@H](C(=O)N[C@@H](Cc1ccc(OP(=O)(O)O)cc1)C(=O)N[C@@H](CO)C(=O)N[C@@H](CCC(=O)O)C(=O)N[C@@H](CC(C)C)C(=O)N[C@@H](CC(N)=O)C(=O)N[C@@H](Cc1ccccc1)C(=O)NCC(N)=O)C(C)C = 4.49
CC[C@H](C)[C@H](NC(=O)[C@@H](NC(=O)[C@H](C)NC(=O)[C@H](Cc1ccc(OP(=O)(O)O)cc1)NC(=O)[C@@H](NC(=O)[C@@H]1CCCN1C(=O)[C@H](CCC(=O)O)NC(=O)[C@@H]1CCCN1C(=O)[C@H](CO)NC(=O)[C@H](C)NC(C)=O)[C@@H](C)CC)[C@@H](C)O)C(=O)N[C@@H](CC(=O)O)C(=O)N[C@@H](Cc1ccccc1)C(=O)N[C@@H](CC(=O)O)C(N)=O = 5.84
